Listing of entries alongside the reported pIC50.
Target: Recombinant human cathepsin A (Homo sapiens, UniProt P10619)
Construct: Recombinant human cathepsin A (residues 29-480, with a C-terminal 10-His tag); 10-His (C); purchased R&D Systems 1049-SE
Sequence (P10619 29-312 limits assumed): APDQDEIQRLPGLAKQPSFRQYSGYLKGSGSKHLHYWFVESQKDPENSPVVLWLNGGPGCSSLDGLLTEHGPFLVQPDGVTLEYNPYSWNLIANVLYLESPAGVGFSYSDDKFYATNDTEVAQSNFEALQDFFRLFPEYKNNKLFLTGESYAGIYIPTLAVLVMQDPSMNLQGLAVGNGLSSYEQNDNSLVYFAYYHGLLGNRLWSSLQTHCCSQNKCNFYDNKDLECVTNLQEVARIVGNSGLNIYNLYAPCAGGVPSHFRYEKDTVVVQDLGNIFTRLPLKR
Sequence (P10619 327-480 limits assumed): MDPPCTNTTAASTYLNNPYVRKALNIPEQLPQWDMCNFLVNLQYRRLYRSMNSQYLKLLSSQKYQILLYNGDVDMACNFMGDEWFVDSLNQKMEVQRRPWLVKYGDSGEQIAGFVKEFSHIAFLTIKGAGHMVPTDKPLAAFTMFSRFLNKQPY
Assay: Cathepsin A inhibitory activity
Format: biochemical
Conditions: recombinant human cathepsin A; read-out: Activity (2): Cathepsin A inhibitory activity, IC50 class
pIC50: −log10 of the molar value.

Recorded results for 8 compounds are shown here.
1) COc1cc(C(=O)N[C@@H](CC(=O)NCC(C)(C)CO)c2ccccc2C)nn1-c1ccccc1F = 4.52 to 6.00
2) O=C(O)CC(NC(=O)c1cc(O)n(-c2ccc(F)cc2F)n1)c1cc(F)ccc1C(F)(F)F (stereo not shown) = 6.00 to 7.00
3) O=C(O)C[C@H](NC(=O)c1cc(O)n(-c2ccc(F)cc2)n1)c1ccccc1Cl = 6.00 to 7.00
4) COc1ccc(C(CC(=O)O)NC(=O)c2cc(O)n(-c3cccc(F)c3)n2)c(C)c1 (stereo not shown) = 6.00 to 7.00
5) O=C(O)CC(NC(=O)c1cc(O)n(-c2ccccc2Cl)n1)c1ccc(-c2ccccn2)cc1 (stereo not shown) = > 7.00
6) Cc1cccc(C(CC(=O)O)NC(=O)c2cc(O)n(-c3ccccc3F)n2)c1C (stereo not shown) = > 7.00
7) O=C(O)CC(NC(=O)c1cc(O)n(-c2ccccc2F)n1)c1ccc(Cl)c(Cl)c1 (stereo not shown) = 6.00 to 7.00
8) O=C(O)CC(NC(=O)c1cc(O)n(-c2cccc(F)c2)n1)c1cccc2c1OC(F)(F)O2 (stereo not shown) = 6.00 to 7.00

Value lookup for pIC50; key = O=C(O)CC(NC(=O)c1cc(O)n(-c2ccc(Cl)cc2)n1)c1cc(F)ccc1F (stereo not shown)
4.52 to 6.00

# input compound: `COc1cc(C(=O)N[C@@H](CC(=O)NCC(C)(C)C)c2ccccc2C)nn1-c1ccccc1F` ; wanted: its pIC50
> 7.00

Please report the recorded pIC50 for `COc1cc(C(=O)N[C@@H](CC(=O)O)c2ccccc2C)nn1-c1ccccc1` .
> 7.00

====

target: Recombinant human cathepsin A (Homo sapiens, UniProt P10619); construct: Recombinant human cathepsin A (residues 29-480, with a C-terminal 10-His tag); 10-His (C); purchased R&D Systems 1049-SE; test: Cathepsin A inhibitory activity; format: biochemical; settings: pharmacological test "Cathepsin A inhibitory activity"; IC50 given as class A/B/C; read-out: Activity (2): Cathepsin A inhibitory activity, IC50 class
measure: IC50

Answered examples (3):
1. O=C(O)C[C@H](NC(=O)c1cc(O)n(-c2ccccc2)n1)c1cccc(Cl)c1Cl = < 100 nM
2. Cc1ccccc1[C@H](CC(=O)O)NC(=O)c1cc(O)n(-c2ccncc2)n1 = 1000 to 30000 nM
3. O=C(O)C[C@H](NC(=O)c1cc(O)n(-c2ccc(F)cc2F)n1)c1ccc(Cl)cc1Cl = 100 to 1000 nM

Quick check: IC50 of O=C(O)CC(NC(=O)c1cc(O)n(-c2ccc(F)cc2F)n1)c1cccc(C(F)(F)F)c1Cl (centres unmarked) ?
100 to 1000 nM

Entry under review: COc1ccc(Cl)cc1C(CC(=O)O)NC(=O)c1cc(O)n(-c2ccccc2F)n1 (centres unmarked) . Reported IC50?
100 to 1000 nM

// lookup IC50 for O=C(O)CC(NC(=O)c1cc(O)n(-c2ccc(F)cc2F)n1)c1cccc2c1OCO2 (centres unmarked)
100 to 1000 nM

Could you tell me which IC50 is on file for O=C(O)CC(NC(=O)c1cc(O)n(-c2ccccc2)n1)c1cccc(Cl)c1F (centres unmarked) ?
100 to 1000 nM

Fill in the blank: the reported IC50 of O=C(O)CC(NC(=O)c1cc(O)n(-c2ccccc2F)n1)c1ccc(OC(F)(F)F)cc1 (centres unmarked) is ____.
100 to 1000 nM

Fill blank: measured IC50 of the compound O=C(O)CC(NC(=O)c1cc(O)n(-c2ccc(F)cc2F)n1)c1ccc(-c2ccc(F)cc2)cc1 (centres unmarked) is ____.
100 to 1000 nM

Using the record for `O=C(O)C[C@H](NC(=O)c1cc(O)n(-c2ccccc2Cl)n1)c1cccc(C(F)(F)F)c1` , report its IC50.
100 to 1000 nM

# get_value(readout='IC50', item= `COc1cccc([C@H](CC(=O)O)NC(=O)c2cc(O)n(-c3ccccc3F)n2)c1` )
100 to 1000 nM

Recorded IC50 of `COc1ccc([C@H](CC(=O)O)NC(=O)c2cc(O)n(-c3cccc(Cl)c3)n2)cn1` , please.
1000 to 30000 nM

Entry `O=C(O)C[C@H](NC(=O)c1cc(O)n(-c2ccccc2Cl)n1)c1ccc(F)cc1` has what IC50?
100 to 1000 nM

GET /values?readout=IC50&item= O=C(O)CC(NC(=O)c1cc(O)n(-c2ccccc2F)n1)c1cccc(C(F)(F)F)c1 (centres unmarked)
100 to 1000 nM

IC50 for O=C(O)CC(NC(=O)c1cc(O)n(-c2ccc(F)cc2F)n1)c1cccc(Cl)c1Cl (centres unmarked) ?
100 to 1000 nM

Would you mind telling me what IC50 value was observed for O=C(O)CC(NC(=O)c1cc(O)n(-c2ccccc2F)n1)c1cccc(OCc2ccccc2)c1 (centres unmarked) ?
1000 to 30000 nM

What does the record list as IC50 for O=C(O)CC(NC(=O)c1cc(O)n(-c2cccc(Cl)c2)n1)c1ccc(-c2ccc(F)cc2)cc1 (centres unmarked) ?
1000 to 30000 nM

I have this compound here, `COc1cccc([C@H](CC(=O)O)NC(=O)c2cc(O)n(-c3ccc(F)cc3F)n2)c1` , and I need its recorded IC50.
100 to 1000 nM

Can you share its IC50? I mean this compound: `COc1ccccc1[C@H](CC(=O)O)NC(=O)c1cc(O)n(-c2cccc(Cl)c2)n1`
100 to 1000 nM
